The reader will find reported IC50 values listed item by item below.
# TESTED ON: Fatty acid synthase (Homo sapiens, UniProt P49327)
# Sequence (P49327 whole entry, the tested form may be a part): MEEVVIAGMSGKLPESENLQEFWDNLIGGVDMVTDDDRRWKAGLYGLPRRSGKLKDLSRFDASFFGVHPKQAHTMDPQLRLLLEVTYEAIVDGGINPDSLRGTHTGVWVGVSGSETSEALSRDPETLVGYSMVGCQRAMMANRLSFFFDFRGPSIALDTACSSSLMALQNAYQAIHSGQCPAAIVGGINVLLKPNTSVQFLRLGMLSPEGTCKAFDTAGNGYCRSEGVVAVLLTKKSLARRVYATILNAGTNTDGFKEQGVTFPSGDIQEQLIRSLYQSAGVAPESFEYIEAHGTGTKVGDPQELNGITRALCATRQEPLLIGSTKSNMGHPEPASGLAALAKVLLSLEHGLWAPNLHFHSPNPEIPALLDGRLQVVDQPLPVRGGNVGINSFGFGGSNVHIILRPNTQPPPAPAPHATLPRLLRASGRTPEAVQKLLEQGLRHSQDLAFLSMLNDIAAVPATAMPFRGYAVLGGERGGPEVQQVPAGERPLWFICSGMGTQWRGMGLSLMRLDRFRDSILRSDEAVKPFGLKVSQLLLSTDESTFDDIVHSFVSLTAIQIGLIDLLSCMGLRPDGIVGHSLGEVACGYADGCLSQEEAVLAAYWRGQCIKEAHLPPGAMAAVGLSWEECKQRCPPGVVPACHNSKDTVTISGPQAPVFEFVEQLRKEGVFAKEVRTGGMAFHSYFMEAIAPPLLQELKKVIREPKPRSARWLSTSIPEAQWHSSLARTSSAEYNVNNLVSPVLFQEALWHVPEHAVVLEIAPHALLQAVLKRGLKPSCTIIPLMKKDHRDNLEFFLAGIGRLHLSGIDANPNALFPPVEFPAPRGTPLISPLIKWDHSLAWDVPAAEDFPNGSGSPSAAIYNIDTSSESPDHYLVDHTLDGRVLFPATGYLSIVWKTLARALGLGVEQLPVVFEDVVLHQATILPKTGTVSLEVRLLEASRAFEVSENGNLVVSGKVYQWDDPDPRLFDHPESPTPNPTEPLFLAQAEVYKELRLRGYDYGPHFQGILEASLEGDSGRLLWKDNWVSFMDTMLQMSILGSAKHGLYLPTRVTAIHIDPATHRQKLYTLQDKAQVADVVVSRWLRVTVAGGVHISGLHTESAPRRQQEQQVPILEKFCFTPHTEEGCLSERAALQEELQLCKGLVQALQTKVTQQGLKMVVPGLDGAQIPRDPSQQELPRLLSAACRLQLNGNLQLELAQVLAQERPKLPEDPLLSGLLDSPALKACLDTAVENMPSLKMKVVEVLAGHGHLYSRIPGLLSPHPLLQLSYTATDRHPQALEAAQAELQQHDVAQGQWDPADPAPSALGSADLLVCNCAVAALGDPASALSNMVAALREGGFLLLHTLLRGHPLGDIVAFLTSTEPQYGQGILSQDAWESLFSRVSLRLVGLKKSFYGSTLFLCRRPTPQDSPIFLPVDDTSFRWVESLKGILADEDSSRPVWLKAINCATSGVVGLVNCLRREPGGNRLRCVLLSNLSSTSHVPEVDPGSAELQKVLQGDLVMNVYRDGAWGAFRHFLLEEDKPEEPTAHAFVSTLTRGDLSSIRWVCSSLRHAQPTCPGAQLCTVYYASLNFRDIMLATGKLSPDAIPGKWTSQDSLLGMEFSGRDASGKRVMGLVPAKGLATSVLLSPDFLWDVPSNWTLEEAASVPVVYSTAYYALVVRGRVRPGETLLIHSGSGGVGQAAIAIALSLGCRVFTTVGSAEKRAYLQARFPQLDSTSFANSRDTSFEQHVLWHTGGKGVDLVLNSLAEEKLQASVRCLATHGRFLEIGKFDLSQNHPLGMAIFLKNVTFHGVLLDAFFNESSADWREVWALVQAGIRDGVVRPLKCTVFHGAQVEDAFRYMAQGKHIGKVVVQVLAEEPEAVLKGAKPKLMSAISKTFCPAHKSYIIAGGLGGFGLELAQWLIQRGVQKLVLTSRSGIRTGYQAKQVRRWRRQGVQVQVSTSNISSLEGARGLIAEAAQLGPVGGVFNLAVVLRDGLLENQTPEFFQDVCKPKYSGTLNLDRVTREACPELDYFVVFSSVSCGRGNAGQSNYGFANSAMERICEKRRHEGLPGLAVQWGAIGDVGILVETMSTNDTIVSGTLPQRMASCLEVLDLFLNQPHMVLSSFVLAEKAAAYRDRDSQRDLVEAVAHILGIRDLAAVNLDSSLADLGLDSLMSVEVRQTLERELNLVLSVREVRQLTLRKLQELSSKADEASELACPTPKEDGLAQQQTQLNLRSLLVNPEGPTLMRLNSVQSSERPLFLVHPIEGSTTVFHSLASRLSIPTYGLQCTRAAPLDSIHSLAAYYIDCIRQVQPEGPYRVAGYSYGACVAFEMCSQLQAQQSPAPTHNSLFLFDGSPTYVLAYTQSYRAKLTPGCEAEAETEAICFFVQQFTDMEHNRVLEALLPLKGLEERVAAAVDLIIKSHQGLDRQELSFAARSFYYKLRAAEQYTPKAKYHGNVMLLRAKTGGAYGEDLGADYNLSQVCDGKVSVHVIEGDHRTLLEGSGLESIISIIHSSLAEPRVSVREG
# ASSAY: FAS thioesterase domain inhibitors, dose response, biochemical, endpoint fluorescence intensity, uHTS hits (AID 624327);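 further: fluorescence from hydrolysis of an O-methyl fluorescein acyl ester substrate by the enzyme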
# Type: functional
Calls of active or inactive are those of the source. No stated cut-off is given here; in the data, active = IC50 of 20 µM or less and inactive = more.
ENDPOINT: IC50

[[record]]
structure_string = "O=Cc1cn(Cc2cccc([N+](=O)[O-])c2)c2ccccc12"
endpoint = "IC50"
endpoint_value = "12 µM (active)"

[[record]]
structure_string = "O=C(N/N=C/c1cc([N+](=O)[O-])cc([N+](=O)[O-])c1O)C(O)(c1ccccc1)c1ccccc1"
endpoint = "IC50"
endpoint_value = "16.1 µM (active)"

[[record]]
structure_string = "CC(=O)NC(=S)Nc1sc2c(c1C#N)CCCCC2"
endpoint = "IC50"
endpoint_value = "12.3 µM (active)"

[[record]]
structure_string = "O[C@H]1C[C@H](c2ccc(Cl)cc2)N(CC2CCCCC2)C[C@@H]1n1cc(C2CC2)nn1"
endpoint = "IC50"
endpoint_value = "12 µM (active)"

[[record]]
structure_string = "O=C(/C=C/c1cccc([N+](=O)[O-])c1)NCc1ccc2c(c1)OCO2"
endpoint = "IC50"
endpoint_value = "2.33 µM (active)"

[[record]]
structure_string = "CC(C)COc1ccc(C(=O)N/C(=C/c2cccc([N+](=O)[O-])c2)C(=O)O)cc1"
endpoint = "IC50"
endpoint_value = "14.2 µM (active)"

[[record]]
structure_string = "O=c1oc(-c2ccccc2F)nc2scc(-c3ccccc3)c12"
endpoint = "IC50"
endpoint_value = "1.19 µM (active)"

